The molecules listed here are annotated with their I^d/I^d0 (absorbance ratio at absorption maximum after/before water resistance test).
- protocol-details: Water resistance test of thin films
- Type: physicochemical
- conditions: thin film immersed in water at 75° C. for 30 minutes
// response body must contain only the number

Illustrative cases are given below, each with its answer.
1) Cc1c(/C=N/[N-]c2nnnn2-c2ccccc2)c([O-])n(CC(C)C)c(=O)c1C#N.Cc1c(/C=N/[N-]c2nnnn2-c2ccccc2)c([O-])n(CC(C)C)c(=O)c1C#N.Cc1c(/C=N/[N-]c2nnnn2-c2ccccc2)c([O-])n(CC(C)C)c(=O)c1C#N.Cc1c(/C=N/[N-]c2nnnn2-c2ccccc2)c([O-])n(CC(C)C)c(=O)c1C#N.[Co+3].[Co+3].c1ccc(-[n+]2ccc(-c3cc[n+](-c4ccccc4)cc3)cc2)cc1 | 0.59
2) CCCCn1c([O-])c(/C=N/[N-]c2nnnn2-c2ccccc2)c(C)c(C#N)c1=O.CCCCn1c([O-])c(/C=N/[N-]c2nnnn2-c2ccccc2)c(C)c(C#N)c1=O.CCCCn1c([O-])c(/C=N/[N-]c2nnnn2-c2ccccc2)c(C)c(C#N)c1=O.CCCCn1c([O-])c(/C=N/[N-]c2nnnn2-c2ccccc2)c(C)c(C#N)c1=O.Fc1cccc(-[n+]2ccc(-c3cc[n+](-c4cccc(F)c4)cc3)cc2)c1.[Co+3].[Co+3] | 0.73
3) Cc1c(/C=N/[N-]c2nnnn2-c2ccccc2)c([O-])n(CC(C)C)c(=O)c1C#N.Cc1c(/C=N/[N-]c2nnnn2-c2ccccc2)c([O-])n(CC(C)C)c(=O)c1C#N.Cc1c(/C=N/[N-]c2nnnn2-c2ccccc2)c([O-])n(CC(C)C)c(=O)c1C#N.Cc1c(/C=N/[N-]c2nnnn2-c2ccccc2)c([O-])n(CC(C)C)c(=O)c1C#N.FC(F)(F)c1cccc(-[n+]2ccc(-c3cc[n+](-c4cccc(C(F)(F)F)c4)cc3)cc2)c1.[Co+3].[Co+3] | 0.76

Lab note: next molecule to report on.
-- ask Record request: I^d/I^d0 (absorbance ratio at absorption maximum after/before water resistance test) value, item Cc1c(/C=N/[N-]c2nnnn2-c2ccccc2)c([O-])n(CC(C)C)c(=O)c1C#N.Cc1c(/C=N/[N-]c2nnnn2-c2ccccc2)c([O-])n(CC(C)C)c(=O)c1C#N.Cc1c(/C=N/[N-]c2nnnn2-c2ccccc2)c([O-])n(CC(C)C)c(=O)c1C#N.Cc1c(/C=N/[N-]c2nnnn2-c2ccccc2)c([O-])n(CC(C)C)c(=O)c1C#N.Fc1ccc(-[n+]2ccc(-c3cc[n+](-c4ccc(F)cc4)cc3)cc2)cc1.[Co+3].[Co+3]
-- reply 0.59

Just for reference, patent US20130123494A1 is where these values come from.
